System: Haemophilus influenzae R252
Test: MIC, standard agar-dilution assay, Haemophilus influenzae R252
Format: cell-based
Settings: Haemophilus influenzae R252; ampicillin-resistant strain; agar dilution
Reported Metric: MIC (µg/mL)
Reply with just the number (in µg/mL).

Some entries whose results are on file:
{"columns": ["Compound", "MIC (µg/mL)"],
 "data": [
  ["CCC1OC(=O)CC(O)C(C)C(OC2OC(C)CC(N(C)C)C2O)C(CCOc2ccccc2)CC(C)C(=O)C=CC(C)=CC1COC1OC(C)C(O)C(OC)C1OC (stereo not shown)", 4],
  ["CCC1OC(=O)CC(O)C(C)C(OC2OC(C)C(O)C(N(C)C)C2O)C(CCNC(=O)COc2ccccc2)CC(C)C(=O)C=CC(C)=CC1COC1OC(C)C(O)C(OC)C1OC (stereo not shown) [Compound 51c]", 8],
  ["CCC1OC(=O)CC(O)C(C)C(OC2OC(C)C(O)C(N(C)C)C2O)C(CCN2C(=O)c3ccccc3C2=O)CC(C)C(=O)C=CC(C)=CC1COC1OC(C)C(O)C(OC)C1OC (stereo not shown)", 32],
  ["CCC1OC(=O)CC(O)C(C)C(OC2OC(C)C(OC(C)=O)C(N(C)C)C2OC(C)=O)C(CCOc2ccccc2)CC(C)C(=O)C=CC(C)=CC1COC1OC(C)C(O)C(OC)C1OC (stereo not shown)", 16],
  ["CCC(=O)OC1C(OC2C(CCCl)CC(C)C(=O)C=CC(C)=CC(COC3OC(C)C(O)C(OC)C3OC)C(CC)OC(=O)CC(O)C2C)OC(C)C(O)C1N(C)C (stereo not shown)", 16],
  ["CCC1OC(=O)CC(O)C(C)C(OC2OC(C)C(O)C(N(C)C)C2O)C(CCOc2ccc(CN3CCCCCC3)cc2)CC(C)C(=O)C=CC(C)=CC1COC1OC(C)C(O)C(OC)C1OC (stereo not shown)", 32]
]}

// MIC value for CCC1OC(=O)CC(O)C(C)C(OC2OC(C)C(O)C(N(C)C)C2O)C(CCOc2cccnc2)CC(C)C(=O)C=CC(C)=CC1COC1OC(C)C(O)C(OC)C1OC (stereo not shown) : 16

Consider CCOC(=O)NN(CCC1CC(C)C(=O)C=CC(C)=CC(COC2OC(C)C(O)C(OC)C2OC)C(CC)OC(=O)CC(O)C(C)C1OC1OC(C)C(O)C(N(C)C)C1O)C(=O)OCC (stereo not shown) . Its measured MIC is 32

---

Tested on: Mycoplasma gallisepticum
Assay: MIC, broth-dilution microtiter test, Mycoplasma gallisepticum
Format: cell-based
Conditions: Mycoplasma gallisepticum; broth-dilution microtiter
Description: The MIC's in Table X were obtained using conventional broth-dilution microtiter tests.
Measured MIC, listed per entry for reference.
Quick note: give the figure in µg/mL, leave out the unit.

Worked cases, answers included:
{"columns": ["Molecule", "Value Observed"],
 "data": [
  ["CCOC(=O)NN(CCC1CC(C)C(=O)C=CC(C)=CC(COC2OC(C)C(O)C(OC)C2OC)C(CC)OC(=O)CC(O)C(C)C1OC1OC(C)C(O)C(N(C)C)C1O)C(=O)OCC (stereo not drawn) [Compound 45]", 0.39],
  ["CCC1OC(=O)CC(O)C(C)C(OC2OC(C)C(O)C(N(C)C)C2O)C(CCS(=O)(=O)c2ccc(C)cc2)CC(C)C(=O)C=CC(C)=CC1COC1OC(C)C(O)C(OC)C1OC (stereo not drawn) [Compound 46]", 0.19]
]}

# input for lookup
Case CCC1OC(=O)CC(O)C(C)C(OC2OC(C)C(O)C(N(C)C)C2O)C(CCOc2ccc(CN3CCCCCC3)cc2)CC(C)C(=O)C=CC(C)=CC1COC1OC(C)C(O)C(OC)C1OC (stereo not drawn) [Compound 42] , Mycoplasma gallisepticum, MIC recorded as 0.39
